pIC50: −log10 of the molar value.
A compilation of pIC50 values for UniProt Q15722 from the published literature.
Sequence (Q15722 whole entry): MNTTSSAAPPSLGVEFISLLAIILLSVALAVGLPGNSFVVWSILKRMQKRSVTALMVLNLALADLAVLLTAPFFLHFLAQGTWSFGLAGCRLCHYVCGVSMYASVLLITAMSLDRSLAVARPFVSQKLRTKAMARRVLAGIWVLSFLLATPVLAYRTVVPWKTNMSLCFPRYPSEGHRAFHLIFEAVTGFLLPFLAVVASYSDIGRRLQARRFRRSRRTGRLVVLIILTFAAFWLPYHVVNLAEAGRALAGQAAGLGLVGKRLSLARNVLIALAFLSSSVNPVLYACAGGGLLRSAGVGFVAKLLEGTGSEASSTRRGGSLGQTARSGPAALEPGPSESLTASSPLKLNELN

COMPOUND	pIC50
CCc1cc(-c2cc[nH]n2)c(O)cc1OCCCOc1ccc(CCC(=O)O)cc1	7.06
COc1ccc(CCCCCCCCOc2ccc(CSCc3cccc(C(=O)O)c3)nc2/C=C/C(=O)O)cc1	6.88
CCCc1c(CCC(=O)O)cccc1OCCCOc1cc(O)c(-c2cc[nH]n2)cc1CC	6.08
CCCc1c(OCCCOc2ccc(C(=O)NC(C)C)c(OC)c2CCC)ccc2c1OC(C(=O)O)CC2 (stereo not given)	10.00
CCc1cc(-c2cc[nH]n2)c(O)cc1OCCCOc1ccccc1CC(=O)O	7.92
CC(C)(CCCCOc1cc(-c2ccc(Cl)cc2)c2ccccc2n1)c1nnn[nH]1	7.30
CCCc1c(OCCCOc2ccc(C(=O)NC)c(OC)c2CCC)ccc2c1OC(C(=O)O)CC2 (stereo not given)	9.07
CCc1cc(-c2cc[nH]n2)c(O)cc1OCCCOc1cccc(CC(=O)O)c1	7.96
CCc1cc(-c2cc[nH]n2)c(O)cc1OCCCCCOc1ccc(CC(=O)O)cc1	7.26
CCCc1c(OCCCOc2cc(O)c(C(=O)/C=C/N(C)C)cc2CC)ccc2c1OC(C(=O)O)CC2 (stereo not given)	6.50
